The measured values listed here are drawn from ChEMBL document CHEMBL1156230.

Consider compounds characterized by their IC50 with Oxysterols receptor LXR-beta (Homo sapiens).
Sequence (P55055 whole entry): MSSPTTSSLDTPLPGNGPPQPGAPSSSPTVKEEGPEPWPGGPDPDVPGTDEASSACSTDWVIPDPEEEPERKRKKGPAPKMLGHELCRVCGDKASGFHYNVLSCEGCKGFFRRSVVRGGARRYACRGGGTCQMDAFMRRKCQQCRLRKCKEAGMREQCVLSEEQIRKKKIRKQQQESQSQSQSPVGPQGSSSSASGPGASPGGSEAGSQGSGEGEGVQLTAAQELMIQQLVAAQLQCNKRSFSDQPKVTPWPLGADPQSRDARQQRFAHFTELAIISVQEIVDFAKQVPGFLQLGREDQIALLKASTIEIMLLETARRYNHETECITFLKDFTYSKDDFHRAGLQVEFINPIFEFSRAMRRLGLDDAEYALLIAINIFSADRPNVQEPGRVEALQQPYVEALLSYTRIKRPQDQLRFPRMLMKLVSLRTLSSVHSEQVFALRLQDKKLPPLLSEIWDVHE
Answer with a number only, understood to be in nM.

Look up IC50: "Cc1nc2c(C(F)(F)F)cccc2nc1-c1ccc(-c2cccc(S(C)(=O)=O)c2)cc1"
53

Now try "CS(=O)(=O)c1cc(Cl)cc(Oc2cccc(-c3c(C(N)=O)cnc4c(C(F)(F)F)cccc34)c2)c1" .
61

----------
PROTOCOL TEXT: Plasma concentration in high fat/high cholesterol fed LDLR-deficient mouse administered with diet for 8 weeks measured after 3 hrs of last dose
Format: ADME, organism-based
STUDY CONDITIONS: po
MEASURED ENDPOINT: concentration at 3 h (ng/mL)
Please state the figure in ng/mL; there is no need to write the unit.

So what does the record say about concentration at 3 h for "O=C(O)Cc1cccc(OCCCN(Cc2cccc(C(F)(F)F)c2Cl)CC(c2ccccc2)c2ccccc2)c1" ?
175
